Assay text: Gli-Sufu pathway antagonists, primary screen, luciferase luminescence, Sufu-KO-LIGHT cells, uHTS (AID 588413)
Conditions: Sufu-KO-LIGHT fibroblasts, Gli luciferase reporter luminescence; at 5 µM
Screen size: about 340,000 compounds; about 2,500 (0.74%) were called active.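 Rule for the calls: active = inhibition above about 55% (limit read from the data); inactive = the rest.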 Only a selection was taken, and actives are over-represented in it overall.
Outcome codes: active, inactive

{"Molecule": "COc1ccc(CCNc2ncnc3c2nnn3Cc2ccccc2)cc1", "Category label": "inactive"}
{"Molecule": "CC(=O)OC(C)C[N+](C)(C)C (stereo not given)", "Category label": "inactive"}
{"Molecule": "O=c1ccc2c(-c3ccccc3S(=O)(=O)O)c3ccc(O)c(O)c3oc-2c1O", "Category label": "inactive"}
{"Molecule": "COCCn1c(C)cc(C(=O)COC(=O)/C=C/c2cccc(OC)c2)c1C", "Category label": "inactive"}
{"Molecule": "C=CCNC(=O)COc1coc(CN2CCN(Cc3ccccc3)CC2)cc1=O", "Category label": "inactive"}
{"Molecule": "Cc1nn(C(C)C(=O)NCCC2=CCCCC2)c(=O)c2nn(-c3ccccc3)c(C)c12 (stereo not given)", "Category label": "inactive"}
{"Molecule": "CCOc1ccc(/C=C(/C#N)c2nnc(N3CCOCC3)n2-c2ccccc2)cc1OC", "Category label": "inactive"}
{"Molecule": "COc1cc(C2C3C(=O)N(c4ccccc4)C(=O)C3ON2c2ccccc2)ccc1O (stereo not given)", "Category label": "inactive"}
{"Molecule": "COCOc1cc(O)c(C(=O)/C=C/c2ccc(OCOC)c(OCOC)c2)c(OCOC)c1", "Category label": "inactive"}
{"Molecule": "COc1ccc(C(=O)N2CCCC(C(=O)c3ccccc3OC)C2)cc1OC (stereo not given)", "Category label": "inactive"}
{"Molecule": "Cc1ccc(C(CC(=O)O)NC(=O)c2ccc(S(=O)(=O)N3CCCC3)cc2)cc1 (stereo not given)", "Category label": "inactive"}
{"Molecule": "O=C(NCCCN1CCCC1=O)C(=O)NCC1OCCN1S(=O)(=O)c1ccc(Br)cc1 (stereo not given)", "Category label": "inactive"}
{"Molecule": "Cc1cc(NC(=O)CN2CCCC(C)C2)n(-c2nc3ccccc3s2)n1 (stereo not given)", "Category label": "inactive"}
{"Molecule": "O=C(OC1CCOC1=O)c1ccc(-c2nc3ccccc3s2)s1 (stereo not given)", "Category label": "inactive"}
{"Molecule": "C=CCn1c(C)cc(C2=NNC(=NCC)SC2)c1C", "Category label": "active"}
{"Molecule": "N#C/C=C/N1CCN(Cc2ccc3c(c2)OCO3)CC1", "Category label": "inactive"}
{"Molecule": "Cc1ccc(C(CNC(=O)Nc2cccc(C)c2)N2CCN(C)CC2)cc1 (stereo not given)", "Category label": "inactive"}
{"Molecule": "COc1ccc(NC(=O)/C(N=Nc2cccc(S(=O)(=O)Nc3ccc(SC(F)F)cc3)c2)=C(\\C)O)cc1", "Category label": "inactive"}
{"Molecule": "COc1ccc(Nc2ncnc3ccc(Br)cc23)c(OC)c1", "Category label": "inactive"}
{"Molecule": "c1c2c(cc3sc(N4CCCCC4)nc13)OCCO2", "Category label": "active"}
{"Molecule": "COc1ccc(Cn2c(-c3ccc(Cl)cc3)c[n+]3ccccc23)cc1", "Category label": "active"}
{"Molecule": "CCN(CC(=O)Nc1ccc(OC)cc1)C(=O)CSCc1ccc(C)cc1", "Category label": "inactive"}
{"Molecule": "COc1ccc(C2=NS(=O)(=O)N(C)C(C(=O)N3CCCCC3)=C2)cc1", "Category label": "inactive"}
{"Molecule": "Cc1ccc(-c2cc(C(=O)NC3CCN(Cc4ccccc4)CC3)c3ccccc3n2)cc1", "Category label": "inactive"}
{"Molecule": "COc1ccc(Cn2c(=O)cc(C)[nH]c2=S)cc1", "Category label": "inactive"}
{"Molecule": "C=CCNC(=S)/N=c1/ccccn1Cc1ccccc1", "Category label": "active"}
{"Molecule": "O=C(CSC(=S)N1CCCCC1)c1c(F)cccc1F", "Category label": "inactive"}
{"Molecule": "CCn1c(C)cc(=O)cc1-c1ccc(Cl)cc1", "Category label": "inactive"}
{"Molecule": "CCOC(=O)N(Cc1ccccc1)C1CC1", "Category label": "inactive"}
{"Molecule": "CN1C(=O)CC(c2ccccc2)C1=O (stereo not given)", "Category label": "inactive"}
{"Molecule": "Cc1ccccc1CS(=O)(=O)CC1(O)CCN(C(=O)c2cccc(C(F)(F)F)c2)CC1", "Category label": "inactive"}
{"Molecule": "COC(=O)CC(CC(=O)OC)n1cccc1", "Category label": "inactive"}
{"Molecule": "Cc1ccc(C(=O)C(=S)N2CCOCC2)cc1", "Category label": "inactive"}
{"Molecule": "O=S(=O)(Nc1ccc2nc(N3CCOCC3)sc2c1)c1ccccc1", "Category label": "inactive"}
{"Molecule": "CCOc1ccc(NC(=O)c2ccc(NC(=O)CN3C(=O)C(=O)N(CC(C)C)C3=O)cc2)cc1", "Category label": "inactive"}
{"Molecule": "Cc1ccc(S(=O)(=O)NCCC(=O)NC2CCN(Cc3ccccc3)CC2)cc1", "Category label": "inactive"}
{"Molecule": "COc1ccccc1C(CNC(=O)c1cccc(NS(=O)(=O)c2ccc(Br)cc2)c1)N(C)C (stereo not given)", "Category label": "inactive"}
{"Molecule": "CCN(CC(=O)Nc1cc(Cl)ccc1C)C(=O)CSCc1ccc(C)cc1", "Category label": "active"}
{"Molecule": "CCOC(=O)C1(CCOC)CCN(Cc2cc3ccccc3s2)CC1", "Category label": "inactive"}
{"Molecule": "COCCCN(C(=O)CSCc1ccc(C)cc1)c1c(N)n(Cc2ccccc2)c(=O)[nH]c1=O", "Category label": "inactive"}
{"Molecule": "NC(=O)C1CCN(C(=O)c2cc(S(=O)(=O)N3CCN(c4ccccc4)CC3)ccc2Cl)CC1", "Category label": "inactive"}
{"Molecule": "CNC(=S)NNC(=O)c1cccn(Cc2ccccc2)c1=O", "Category label": "inactive"}
{"Molecule": "Cc1ccc(N2C(=O)C3C4C=CC(CC4)C3C2=O)cc1Cl (stereo not given)", "Category label": "inactive"}
{"Molecule": "COc1cc(C(=O)N2CCN(C3CCC(C)CC3)CC2)cc(OC)c1OC (stereo not given)", "Category label": "inactive"}
{"Molecule": "Brc1ccc2nc(N3CCCC3)sc2c1", "Category label": "inactive"}
